B1: TNXB (parent)
chain: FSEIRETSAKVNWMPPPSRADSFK

Variants of: B1
TEST: protein stability index of a GFP-peptide fusion (GPS, HEK-293T) (PSI 1-6); higher = more stable;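 further: lentivirally expressed fusions sorted by FACS into six bins by GFP to DsRed ratio, PSI derived from sequencing read proportions per bin multiplied by bin number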
MEASUREMENT_CONDITIONS: c terminus: a fixed tail appended
PROPERTY: protein stability index

>>> numeric_readout("R19E")
4.2
>>> numeric_readout("F23C")
4.22
>>> numeric_readout("E3Y")
2.21
>>> numeric_readout("F1E")
4.45
>>> numeric_readout("S18A")
3.68
>>> numeric_readout("S2K")
3.49
>>> numeric_readout("S2P")
3.65
>>> numeric_readout("S18P")
3.42
>>> numeric_readout("A20M")
2.79
>>> numeric_readout("A20S")
3.5
>>> numeric_readout("F23S")
3.89
>>> numeric_readout("M14F")
3.13
>>> numeric_readout("K10Y")
2.72
>>> numeric_readout("V11A")
3.77
>>> numeric_readout("V11L")
3.29
>>> numeric_readout("K10W")
1.66
>>> numeric_readout("K24D")
3.41
>>> numeric_readout("S22T")
3.26
>>> numeric_readout("M14E")
4.11
>>> numeric_readout("S22H")
3.27
>>> numeric_readout("N12I")
3.24
>>> numeric_readout("F23E")
4.33
